Source of measurements: patent US20160176956A1

- Assay system: T1, mouse BMP6 (mouse, UniProt P20722 372-510, limits assumed)
- T1 construct: also called mBMP6; mBMP6_RD
- T1 sequence (looked up): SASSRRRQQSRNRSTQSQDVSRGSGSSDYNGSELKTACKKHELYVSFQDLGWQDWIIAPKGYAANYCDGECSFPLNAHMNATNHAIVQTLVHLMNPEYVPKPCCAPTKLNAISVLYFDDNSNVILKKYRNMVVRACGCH
- Method notes: specificity ELISA, coated antigen, IgG 0.2 uM
- Experimental: After washing the plates three times with 100 uL TBST, each antigen was incubated with 40 uL of purified Fab or IgG samples at a concentration of 1 uM and 0.2 uM respectively (in PBST buffer). After 2 h incubation at RT, the plates were again washed three times and bound Fabs/IgGs detected by adding 40 uL of a 1:5000 dilution of secondary AP-conjugated anti-human IgG F(ab2) antibody. […]
Assign Signal over background to each entry below.
Just the number, please, no unit after it.

Lookup: Please look up its Signal over background: Antibody 7 (antibody, human IgG1, lambda, V domains shown, germlined clone of NOV0806 (HCDR2-matured NOV0442_VL[Y49,G50,N51Q]); human IgG1; final lead; also called NOV0958; NOV958) VH: QVQLVESGGGLVKPGGSLRLSCAASGFTFSSYVVHWVRQAPGKGLEWVGRIRLETHGYAAEYAASVKGRFTISRDDSKNTLYLQMNSLKTEDTAVYYCARVERSKSGFDNWGQGTLVTVSS VL: QSVLTQPPSVSGAPGQRVTISCTGSSSNIGAGYSVHWYQQLPGTAPKLLIYGQSERPSGVPDRFSGSKSGTSASLAITGLQAEDEADYYCQSWDSSQTLVVFGGGTKLTVLG
Found: 32

Lookup: Now try Antibody 3 (antibody, human IgG1, lambda, V domains shown, germlined clone of NOV0800 (HCDR2-matured NOV0442_VL[Y49,G50,N51S]); human IgG1; back-up antibody; also called NOV0961; NOV961) VH: QVQLVESGGGLVKPGGSLRLSCAASGFTFSSYVVHWVRQAPGKGLEWVGRIKDHKQGYTTAYAASVKGRFTISRDDSKNTLYLQMNSLKTEDTAVYYCARVERSKSGFDNWGQGTLVTVSS VL: QSVLTQPPSVSGAPGQRVTISCTGSSSNIGAGYSVHWYQQLPGTAPKLLIYGSSERPSGVPDRFSGSKSGTSASLAITGLQAEDEADYYCQSWDSSQTLVVFGGGTKLTVLG .
Found: 29

Lookup: Now try Antibody 5 (antibody, human IgG1, lambda, V domains shown, germlined clone of NOV0787 (HCDR2-matured NOV0442_VL[Y49,G50,N51Q]); human IgG1; lead antibody; also called NOV0951; NOV951) VH: QVQLVESGGGLVKPGGSLRLSCAASGFTFSSYVVHWVRQAPGKGLEWVGRIKRESSSYTTMYAAPVKGRFTISRDDSKNTLYLQMNSLKTEDTAVYYCARVERSKSGFDNWGQGTLVTVSS VL: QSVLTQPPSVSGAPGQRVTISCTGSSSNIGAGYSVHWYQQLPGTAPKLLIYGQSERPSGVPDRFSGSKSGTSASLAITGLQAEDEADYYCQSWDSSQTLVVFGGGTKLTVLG .
Found: 24

Lookup: Now try Antibody 6 (antibody, human IgG1, lambda, V domains shown, germlined clone of NOV0798 (HCDR2-matured NOV0442_VL[Y49,G50,N51Q]); human IgG1; lead antibody; also called NOV0954; NOV954) VH: QVQLVESGGGLVKPGGSLRLSCAASGFTFSSYVVHWVRQAPGKGLEWVGRTRHSDMGYATSYAAPVKGRFTISRDDSKNTLYLQMNSLKTEDTAVYYCARVERSKSGFDNWGQGTLVTVSS VL: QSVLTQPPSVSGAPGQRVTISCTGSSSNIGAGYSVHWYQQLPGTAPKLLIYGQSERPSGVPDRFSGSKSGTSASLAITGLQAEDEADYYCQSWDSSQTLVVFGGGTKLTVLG .
Found: 29
